system: Fusarium oxysporum; assay: Antimicrobial activity against Fusarium oxysporum at 30 uM after 72 hrs by microtiter assay; format: functional
recordedMetric: inhibition at 30 µM

Fill blank: measured inhibition at 30 µM of the molecule C[C@@H]1[C@H](O)[C@@H](C)/C=C/C=C/C=C/C=C/C=C/C=C/C=C/[C@H](O[C@@H]2O[C@H](C)[C@@H](O)[C@H](N)[C@@H]2O)C[C@@H]2O[C@](O)(C[C@@H](O)C[C@@H](O)[C@H](O)CC[C@@H](O)C[C@@H](O)CC(=O)O[C@H]1C)C[C@H](O)[C@H]2C(=O)O [AMPHOTERICIN B] is ____.
87.1%

Please give the result for C/C=C1\NC(=O)[C@H](Cc2ccccc2)NC(=O)[C@@H](C(C)C)NC(=O)[C@@H]([C@@H](C)CC)NC(=O)[C@H](NC(=O)[C@H](NC(=O)[C@H](CCCNCCCCCC)NC(=O)[C@H]2CCCN2C(=O)[C@H](NC(=O)[C@@H](NC(=O)[C@@H](NC(=O)[C@H](NC(=O)CCCC(C)C)C(C)C)[C@@H](C)O)C(C)C)C(C)C)[C@@H](C)CC)[C@@H](C)OC(=O)[C@H](C(C)C)NC1=O too.
89%

Please give the result for C/C=C1\NC(=O)[C@H](Cc2ccccc2)NC(=O)[C@@H](C(C)C)NC(=O)[C@@H]([C@@H](C)CC)NC(=O)[C@H](NC(=O)[C@H](NC(=O)[C@H](CCCNCc2ccncc2)NC(=O)[C@H]2CCCN2C(=O)[C@H](NC(=O)[C@@H](NC(=O)[C@@H](NC(=O)[C@H](NC(=O)CCCC(C)C)C(C)C)[C@@H](C)O)C(C)C)C(C)C)[C@@H](C)CC)[C@@H](C)OC(=O)[C@H](C(C)C)NC1=O too.
91.2%

Please give the result for O=C1C2CC=CCC2C(=O)N1SC(Cl)(Cl)Cl (stereo unspecified) [CAPTAN] too.
98.1%

Please give the result for C/C=C1\NC(=O)[C@H](Cc2ccccc2)NC(=O)[C@@H](C(C)C)NC(=O)[C@@H]([C@@H](C)CC)NC(=O)[C@H](NC(=O)[C@H](NC(=O)[C@H](CCCN)NC(=O)[C@H]2CCCN2C(=O)[C@H](NC(=O)[C@@H](NC(=O)[C@@H](NC(=O)[C@H](NC(=O)CCCC(C)C)C(C)C)C(C)=O)C(C)C)C(C)C)[C@@H](C)CC)[C@@H](C)OC(=O)[C@H](C(C)C)NC1=O too.
82.2%

Please give the result for C/C=C1\NC(=O)[C@H](Cc2ccccc2)NC(=O)[C@@H](C(C)C)NC(=O)[C@@H]([C@H](C)CC)NC(=O)[C@H](NC(=O)[C@H](NC(=O)[C@H](CCCN)NC(=O)[C@H]2CCCN2C(=O)[C@H](NC(=O)[C@@H](NC(=O)[C@@H](NC(=O)[C@H](NC(=O)CCCC(C)C)C(C)C)[C@@H](C)O)C(C)C)C(C)C)[C@H](C)CC)[C@H](C)OC(=O)[C@H](C(C)C)NC1=O [KAHALALIDE F] too.
99.6%

// data source = ChEMBL document CHEMBL1148762
